- Tested on: ATP;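 also: ATP exposure 15 min at 22 °C before imaging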
- protocolDetails: switch fluorescence ratio, 500 uM ATP over buffer (Cy3 cluster intensity, sum of 5 cycles each) (fold (ratio)); higher = stronger signal-on switching upon ATP binding; sequences stand for … in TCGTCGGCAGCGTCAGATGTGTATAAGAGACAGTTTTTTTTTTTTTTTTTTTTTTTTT…TC
- testContext: aptamer strand: ATP DNA aptamer (quencher-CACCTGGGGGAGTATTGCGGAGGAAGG + anchor), 100 nM annealed; ATP concentration: 500 uM
metric: switch fluorescence ratio

>>> reportedmeasurement("GGGAGATGAC")
1.01
>>> reportedmeasurement("AACCTGTCGG")
1.01
>>> reportedmeasurement("AAGGTAGGGT")
1.03
>>> reportedmeasurement("ATAAGTAAAT")
1
>>> reportedmeasurement("AGGTAGCGGC")
0.991
>>> reportedmeasurement("CATATGTAGA")
0.997
>>> reportedmeasurement("TTATAGGCGG")
0.981
>>> reportedmeasurement("GGGGGGCTGA")
0.982
>>> reportedmeasurement("CTTGTGGCGG")
0.97
>>> reportedmeasurement("TAGGTAGCGG")
1
>>> reportedmeasurement("CGGATAATTG")
0.989
>>> reportedmeasurement("ATAGTCACAT")
1.02
>>> reportedmeasurement("TAATATTTCG")
1.05
>>> reportedmeasurement("GCTGGAATTG")
1
>>> reportedmeasurement("TTGATTTTCA")
0.999
>>> reportedmeasurement("GAATTTGTTT")
0.984
>>> reportedmeasurement("TCTGGGAAGA")
1.02
>>> reportedmeasurement("TATGGAGAGG")
0.984
>>> reportedmeasurement("GTGGCTGGGA")
0.974
>>> reportedmeasurement("AAGGTATGGG")
1.06

Each recorded value in this set is attributed to the supplement of paper PMC10126150.
